Cited source for all entries: patent US20260191849A1

Tested on: HT29 cells
Test: Combined use of compound 257 or AMG650 with PLK1 inhibitor (Volasertib) on HT29 cell viability, 168 h (Biological Example 22)
Format: cell-based
Conditions: Homo sapiens, HT-29, 168 h
Measure: pIC50
Note on pIC50: it is the negative log10 of concentration, concentration in mol/L.

(Q) Form field: reported pIC50 of Cc1cc(NC(=O)c2ccc(NS(=O)(=O)CCO)cc2N2CCC3(CC2)CC3)nc(N2CCC(F)(F)CC2)n1 [AMG650]
(A) 7.52

----------
Test system: HCT116 cells
Test: Combined use of compound 257 with Aurora B inhibitor on HCT116 cell viability, 72 h (Biological Example 12)
Type: cell-based
Conditions: HCT116 cells, Barasertib 100 nM
Measure: IC50

(Q) Recall the recorded IC50 for "COc1ccc(NC(=O)c2ccc(NS(=O)(=O)CCO)cc2N2CCC3(CC2)CC3)nc1N1CCC(F)(F)CC1" with HCT116 cells and state it.
(A) > 10 µM
